Biological target: T1, PHF3 SPOC domain (1199-1356aa), bacterially expressed (human, UniProt Q92576 1199-1356)
T1 chain: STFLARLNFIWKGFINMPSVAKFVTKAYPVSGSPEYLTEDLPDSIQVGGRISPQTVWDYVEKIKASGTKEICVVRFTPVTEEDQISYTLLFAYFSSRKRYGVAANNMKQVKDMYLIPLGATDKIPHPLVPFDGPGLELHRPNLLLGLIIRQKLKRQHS
Test: FP; 100 mM NaCl
Square brackets hold non-standard residues; d marks the D form. Ends that are not written are not given here. pS = N[C@@H](COP(=O)(O)O)C(=O)O; FAM = 5,6-carboxyfluorescein
attribute-measured: Kd

Identify Kd associated with the binder {FAM}-Y[pS]PTSPSY[pS]PTSPS [2xpS2 CTD diheptapeptide, FAM-labeled]
1400 nM
